- Test Description: Saturation mutagenesis of SEQ ID NO:109: dicamba decarboxylation activity of point mutants (CO2 released), fold of backbone (Tables 7, 8, Megatable 1)
- Condition Parameters: decarboxylation activity (CO2 released) of point mutant vs unmutated backbone protein; backbone SEQ ID NO: 109
Measurement Label: Fold Activity (fold)

[
  {
    "Molecule": "72 (protein, Cupriavidus necator) MADCPCCVSPKRRRLLGSVSAIAAGMMAGLPALAAQPSTAAAGTGKPLSIDIHAHYYSESFLGLLGGEGKQFGGHFFRNDDSFTFQTPAGGLGPLPMKFIDVEQRVRDMDNSGVDVQAISLSVPMVYWADRTLNAKLARAWNTAASDVHRKHPTRFVVLATLPMLNANDAIDELEFAAGLPGVRGIYMGTNINNRDLDDPLFSPIFKRIEQLNLPIFLHPQQTVGGARLADFYLSNLLGNPFDTAIAASHLILGGVLDKYPALHFSLPHAGGALPILVGRIDAGWSMRSETKRVAQKPSSYLRRFSYDTISHSGPTLDFLIRNIGADRLVLGSDYCFDMGYEQPVRFLDRLALPDDQKRMVVGGNAARLLNL",
    "Unit Name": "fold",
    "Observed Result": 1.2
  },
  {
    "Molecule": "86 (protein, listed as Sphingopyxis alaskensis) MALGASVASREASAQMAKAPMRKIATEEAFATPELAKAWLEIARSEPNSSLDIPTGILSIFDNPRPGSNQDRFRRQLLDVDAERIRDMDEAGVDMQLLSVTIPGVQIFEPARAGELAVTTNDHLAAAIARRPTRFAGLACFAPHDPVQATREMERAVNALGLKGFIVNSHTQDLYLDDPRFAPVLEAAQSLDCPIYLHPRAPSNGMAAPFRDYSMGGSIWGFGVEAGTHAVRMILSGVFDRYPRLRIVLGHMGEALPFWMWRLDHMAARRAKDGRMKPLSLAPSEYFKRNFAVTTSGFESPDVLDLVIKVAGIENIMWAIDYPYESSRDAVTFIEGADLTASQRASIFHRNAVRHFRLS",
    "Unit Name": "fold",
    "Observed Result": 1.4
  },
  {
    "Molecule": "100 (protein, listed as Reinekea blandensis) MAIIDCHGHYTTTPKGVEDYRNAQKAAVAKDPSFKGEKGQVVVSDDEIRESIENNQLKMQRERGTDLTIFSPRASWMGHHIGNEYTSQFWTEHQNDLIRRVCDLFPKNFAPVAQLPQSPGVDPAKSVPEIVRTVEQMGFIGINLNPDPSGGYWKDTSLADRAFYPIYEKMVEYDIPAMIHVSAACNDCFHTTGSHYLGADTTGFQQLIMSDVFKDFPSLKIIIPHGGGAVPYHWGRFRGLMQDQGYAPLEESALKNIYFDTCVYHQRGIDLLLDIVPTQNILFASEMIGAVRGIDPETGHNFDDTKRYIDNNTALNAEEKAMIFEGNARRVFSRLKTD",
    "Unit Name": "fold",
    "Observed Result": 2.5
  },
  {
    "Molecule": "153 (protein, Dicamba decarboxylase variant) MAQGKVALEEHFAIPETLQDSAGFVPSEYLKELQHRLLDIQDTRLKLMDAHGIETMILSLAAPAVQAIPDRRKAIEIARRANDFLAEECAKRPDRFLAFAALPLQDVDAATEELQRCVNDLGFVGALVNGFSVEGDGQTPLYYDLPQYRPFWGEVEKLDVPFYLHPRNPLPQDSRIYDGHPWLLGPTWAFAQETAVHALRLMASGLFDEHPRLNIILGHLGEGLPYMMYRIDHRIAWVKLPPRYPAKRRFMDYFNENFHITTSGNFRTQTLIDAILEIGADRILFSTDWPFENIDHAADWFNATSIAEADRLKIGRTNARRLFKLDGD",
    "Unit Name": "fold",
    "Observed Result": 1.7
  }
]
